Test system: M. luteus ATCC 9341
Method summary: MIC by agar plate dilution method, M. luteus ATCC 9341
Format: cell-based
Test settings: Micrococcus luteus, ATCC9341; Test 2; M. luteus ATTC 9341; inoculum 10^6; 37° C., 18 hours; read-out: minimum inhibitory concentration (MIC)
Below, each entry is listed alongside its reported MIC.
The answer is to be given in µg/mL; state only the numeric part.

Examples from the recorded data:
| Molecule | Units of measure | Numeric result |
| --- | --- | --- |
| CC1Sc2c(C(=O)O)c(=O)c3cc(F)c(N4CCNCC4)cc3n21 (centres unmarked) | µg/mL | 1.56 |
| COc1c(N2CCN(C)CC2)c(F)cc2c(=O)c(C(=O)O)c3n(c12)C(C)S3 (centres unmarked) | µg/mL | 0.2 |
| CC1COc2c(N3CCN(C)CC3)c(F)cc3c(=O)c(C(=O)O)cn1c23 (racemic) [Ofloxacin, ofloxacin, reference compound] | µg/mL | 3.13 |

Problem: Looking for the measured MIC of O=C(O)c1c2n(c3cc(N4CCNCC4)c(F)cc3c1=O)C(c1ccccc1)S2 (centres unmarked) , can you help?
Solution: 3.13

Problem: Query O=C(O)c1c2n(c3cc(N4CCNCC4)c(F)cc3c1=O)C(c1ccc(F)cc1)S2 (centres unmarked) next
Solution: 1.56
